Each recorded value in this set is attributed to the nanobody polyreactivity screen of Harvey et al. (2022).

# protocolText: yeast display, Sf9 membrane polyspecificity reagent, FACS + sequencing; frameworks hold sequencing errors
readoutLabel: polyreactivity (PSR sort gate)

constructsequence=QVQLVESGGGLVQAGGSLRLSCAASGFTFGLYGMGWYRQAPGKERELVAAISSSGGDTYYADSVKGRFTISRDNAKNTVYLQMNSLKPEDTAVYYCAADRLPQYDYWGQGTQVTVSS result="low polyreactivity"
constructsequence=QVQLVESGGGLVQAGGSLRLSCGASGGIFIFYAMGWYRHAPGKERELVAAISNVSSTNYADSVKGRFTISRDNAKHTVYLEMNSLKPEDTAVYYCNAVGVPSEYYSWGQGTQVTVSS result="low polyreactivity"
constructsequence=QVQLVESGGGLVQAGGSLRLSCAASGIIFGYNAMGCYRQAPGKERELVASIDVSGGITYYADSVKGRFTISRDNAKNTVYLQMNSLKPEDTAVYYCAAYRYGSRYGYEYWGQGTQVTVSS result="high polyreactivity"
constructsequence=QVQHVESGGGLVQAGGSLRLSCAASGYIFSRYRGWYRQAPGTERELVAAITRGGVSTYYADSVKGRFTISRDNAKNTVYLQMNSLKPEDTAVYYCATGRPVYYVASYDYDYWGQGTQVTVSS result="low polyreactivity"
constructsequence=QVQLVESGGGLVQAGGSLRLSCAASGSIFPRNAMGWYRQAPGKERELVARINSGGTTKYADSVKGRFTISRDNAKYTVFLQMNSLKPEDTAGYYCNADTYILDPLRKSYGYDYWGQGTQVTVSS result="low polyreactivity"
constructsequence=QVQLVESGGGLVQSGGSLRLSCAASGRTFRYYVMGWYRQAPGKERELVADISRGGGRTRYADSVKGRFTISRDNAKNTVYLQMNSLKRDDTAVYYCGARSYSGQFGYWGQGTQVTVSS result="high polyreactivity"
constructsequence=QVQLVESGGGLVQAGGSLRLSCAASGSIFNRYAMGWYRQAPGKERELVAAISTHTGTTYYADSVKGRFTISRDNAKNTVYLQMNSLKPEDTAVYYCAKRSRYGYGKSYDYWGQGTQVTVSS result="high polyreactivity"
constructsequence=QVQLVESGGGLVQAGGSIRLSCAASGRTFHYNVMGGYRQAPGNERELVAAITNTGGSTYYADSVKGRFTISRDNAKNTVYLQMYSLKPVDTAVYYCAAVIWGRRYGAYPYEYWGQGTQVTVSS result="low polyreactivity"
constructsequence=QVQLVESGGGLVQAGGSLRLSCAASGAMGCYRQAPGKERELVAGITSGGSTNYADSEKGRFTISRDNAKNTVYLQMNSLKPEDTAVYYCNAVGGPRWFSVGWPYDYWGQGTQVTVSS result="low polyreactivity"
constructsequence=QVQLVESGGGLVQAGGSLRLSCAASGSTFWYYAMGWYRQAPGKERELVADITYSGVSTYYADSVKGRFTISRDNAKNTVYLQMNSLKPEDTAVYYCNADWGSVNGYSGYYYWGQGTQVTVSS result="low polyreactivity"
constructsequence=QVQLVESGGGLVQAGGSHRLSCAASGRTFRYNAMGWYRQAPGKERELVAAISGRGSSTYYADSVKGRFTISRDNAMNTVYLQMNSLKPEETAVYYCAALPASVRRPGWHDYWGQGTQVTVSS result="high polyreactivity"

----------
# protocolText: yeast display, Sf9 membrane polyspecificity reagent, FACS + sequencing; frameworks hold sequencing errors
readoutLabel: polyreactivity (PSR sort gate)

constructsequence=QVQLVESGGGLVQAGGSLRLSCAASGSIFGDYAMGWSSQAPGKEGELVAAISRGDGTYYADSVKGRFTISRDNAKNTVYLQMNSLKPEDTAVYYCNAGGRYHAPSGDFWGQGSQVTVSS result="low polyreactivity"
constructsequence=QVQLVESGGGLVQAGGSLRLSCDASGSIFAPNSMGWYRQAPGKERELVAAITSSGCRTYYADSVKGRFTISRDNAMNTFYLQMNSLKPVDSAVYYWIAGFYVRRDYDYWGQGTQVTVSS result="low polyreactivity"
